# credit: ChEMBL document CHEMBL1138722

target: Prostaglandin G/H synthase 1 (Homo sapiens, UniProt P23219); assay: In vitro inhibition of Prostaglandin G/H synthase 1 in human whole blood
Sequence (P23219 whole entry): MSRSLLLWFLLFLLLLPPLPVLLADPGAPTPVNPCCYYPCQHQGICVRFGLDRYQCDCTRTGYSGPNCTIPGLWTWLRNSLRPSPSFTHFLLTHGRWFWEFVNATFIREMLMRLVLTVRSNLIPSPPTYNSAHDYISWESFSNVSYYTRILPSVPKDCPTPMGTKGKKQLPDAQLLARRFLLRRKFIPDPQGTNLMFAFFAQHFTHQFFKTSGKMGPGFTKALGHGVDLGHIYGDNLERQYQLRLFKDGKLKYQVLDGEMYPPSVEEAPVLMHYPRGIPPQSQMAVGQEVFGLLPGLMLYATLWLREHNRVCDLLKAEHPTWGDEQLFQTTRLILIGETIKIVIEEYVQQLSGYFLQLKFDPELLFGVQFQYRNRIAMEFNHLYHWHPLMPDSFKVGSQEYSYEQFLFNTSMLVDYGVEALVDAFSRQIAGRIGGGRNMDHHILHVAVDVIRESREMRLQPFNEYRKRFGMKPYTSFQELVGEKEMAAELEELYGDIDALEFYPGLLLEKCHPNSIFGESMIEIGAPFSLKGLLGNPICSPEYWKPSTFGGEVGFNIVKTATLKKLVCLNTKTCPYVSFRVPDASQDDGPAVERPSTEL
pIC50: −log10 of the molar value.
readoutName: pIC50

Fill in: pIC50 of COC1(c2cc(-c3ccc(S(C)(=O)=O)cc3)n(-c3ccc(C)cc3)n2)CCCO1 (stereo unspecified) is ___
< 4.00

====

Molecular target: Prostaglandin G/H synthase 2 (Homo sapiens) (UniProt P35354)
Sequence (whole entry): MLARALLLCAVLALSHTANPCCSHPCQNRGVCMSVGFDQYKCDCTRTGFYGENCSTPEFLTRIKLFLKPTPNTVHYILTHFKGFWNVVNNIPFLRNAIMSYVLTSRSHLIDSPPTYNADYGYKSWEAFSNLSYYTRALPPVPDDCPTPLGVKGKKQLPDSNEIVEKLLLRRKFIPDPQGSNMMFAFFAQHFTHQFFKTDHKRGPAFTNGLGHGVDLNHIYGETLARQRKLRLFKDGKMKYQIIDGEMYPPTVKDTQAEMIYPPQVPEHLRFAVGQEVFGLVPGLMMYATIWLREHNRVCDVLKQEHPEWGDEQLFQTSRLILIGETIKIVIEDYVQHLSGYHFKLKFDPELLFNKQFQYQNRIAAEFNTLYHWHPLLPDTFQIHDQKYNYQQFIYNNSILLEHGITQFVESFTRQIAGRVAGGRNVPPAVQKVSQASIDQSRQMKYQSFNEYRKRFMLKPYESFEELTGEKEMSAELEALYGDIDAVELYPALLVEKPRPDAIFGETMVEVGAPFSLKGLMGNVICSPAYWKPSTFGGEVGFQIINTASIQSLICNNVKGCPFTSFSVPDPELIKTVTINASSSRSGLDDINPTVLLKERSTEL
Conditions: Blood, at 10 µM
Description: In vitro inhibition of Prostaglandin G/H synthase 2 in human whole blood at 10 uM
Returns YES if the recorded inhibition is greater than or equal to 80%, and NO otherwise.

Use these answered entries as a reference point.
* COC1(c2cc(-c3ccc(S(C)(=O)=O)cc3)n(-c3ccccc3)n2)CCCO1 (configuration not stated) | NO
* COC1(c2cc(-c3ccc(S(C)(=O)=O)cc3)n(-c3ccc(Br)cc3)n2)CCCO1 (configuration not stated) | YES
* COC1(c2cc(-c3ccc(S(C)(=O)=O)cc3)n(-c3ccc(F)cc3)n2)CCCO1 (configuration not stated) | NO
* COC1(c2cc(-c3ccc(S(C)(=O)=O)cc3)n(-c3ccc(C(F)(F)F)cc3)n2)CCCO1 (configuration not stated) | NO
* COC1(c2cc(-c3ccc(S(C)(=O)=O)cc3)n(-c3ccc(C)cc3)n2)CCCO1 (configuration not stated) | YES

Field: next molecule
# bool: inhibition of COC1(c2cc(-c3ccc(S(C)(=O)=O)cc3)n(-c3ccc(C#N)cc3)n2)CCCO1 (configuration not stated) >= 80%
NO

====

inhibition for assorted compounds
target: Prostaglandin G/H synthase 1 (Homo sapiens); test: In vitro inhibition of Prostaglandin G/H synthase 1 in human whole blood at 100 uM; format: tissue-based
Give just the numeric value; % need not be written.

Solved cases below.
• COC1(c2cc(-c3ccc(S(C)(=O)=O)cc3)n(-c3ccc(C#N)cc3)n2)CCCO1 (centres undefined) = 0
• COC1(c2cc(-c3ccc(S(C)(=O)=O)cc3)n(-c3ccc(Cl)cc3)n2)CCCO1 (centres undefined) = 60
• COC1(c2cc(-c3ccc(S(C)(=O)=O)cc3)n(-c3ccc(C(F)(F)F)cc3)n2)CCCO1 (centres undefined) = 50

Next, consider the following compound.
Give its inhibition value. Item: COC1(c2cc(-c3ccc(S(C)(=O)=O)cc3)n(-c3ccc(F)cc3)n2)CCCO1 (centres undefined)
25
